outcomeMeasure: melting point

[[record]]
givensmiles = "CCn1c(Oc2ccc3cc[nH]c3c2)nnc1[C@@H](C)NS(=O)(=O)c1cc(C)c(Cl)cc1Cl"
valuemeasured = "102 to 110.5 °C"

[[record]]
givensmiles = "CCn1c(Oc2cc3nc(C)cc(C)n3n2)nnc1[C@@H](C)NS(=O)(=O)c1ccc(Cl)c(Cl)c1"
valuemeasured = "191 to 194 °C"

[[record]]
givensmiles = "CCn1c(Oc2ccc(F)c(F)c2)nnc1[C@@H](C)NS(=O)(=O)c1ccc(Cl)c(Cl)c1"
valuemeasured = "140 to 145.5 °C"

[[record]]
givensmiles = "CCn1c(Oc2cccc(N3CCCCC3)c2)nnc1[C@@H](C)NS(=O)(=O)c1ccc(Cl)c(Cl)c1"
valuemeasured = "185 to 187 °C"

[[record]]
givensmiles = "CCn1c(Oc2cc(C)nc(C)c2)nnc1[C@@H](C)NS(=O)(=O)c1ccc(Cl)c(Cl)c1"
valuemeasured = "164 to 165 °C"

[[record]]
givensmiles = "CCn1c(Oc2cccc(C)c2)nnc1[C@@H](C)NS(=O)(=O)c1ccc(Cl)c(Cl)c1"
valuemeasured = "160 to 161 °C"

[[record]]
givensmiles = "CCn1c(Oc2cccc(N3CCN(C)CC3)c2)nnc1[C@@H](C)NS(=O)(=O)c1ccc(Br)c(C)c1"
valuemeasured = "204 to 205 °C"

[[record]]
givensmiles = "CCn1c(Oc2cccc(N3CCN(C)CC3)c2)nnc1[C@@H](C)NS(=O)(=O)c1cc(F)cc(Cl)c1C"
valuemeasured = "150 to 152 °C"

[[record]]
givensmiles = "CCn1c(Oc2ccc3cc[nH]c3c2)nnc1[C@@H](C)NS(=O)(=O)c1ccc(C)c(C)c1"
valuemeasured = "96 to 104 °C"

[[record]]
givensmiles = "CCn1c(Nc2ccc(F)cc2)nnc1[C@@H](C)NS(=O)(=O)c1ccc(Cl)c(Cl)c1"
valuemeasured = "192 to 195 °C"

[[record]]
givensmiles = "CCn1c(Oc2ccc(C)nc2)nnc1[C@@H](C)NS(=O)(=O)c1ccc(Cl)c(Cl)c1"
valuemeasured = "148.5 to 150.5 °C"

[[record]]
givensmiles = "CCOc1ccc2c(Oc3nnc([C@@H](C)NS(=O)(=O)c4ccc(Cl)c(Cl)c4)n3CC)csc2c1"
valuemeasured = "153.5 to 155.5 °C"

[[record]]
givensmiles = "CCn1c(Oc2ccc(C)c(C)c2)nnc1[C@@H](C)NS(=O)(=O)c1ccc(Cl)c(Cl)c1"
valuemeasured = "161 to 162.5 °C"

[[record]]
givensmiles = "CCn1c(Oc2ccc(Cl)cc2)nnc1[C@@H](C)NS(=O)(=O)c1ccc2c(Cl)cccc2c1"
valuemeasured = "174 to 177 °C"

[[record]]
givensmiles = "CCn1c(Oc2ccc(OC)cc2)nnc1[C@@H](C)NS(=O)(=O)c1ccc2ccccc2c1"
valuemeasured = "110 to 119 °C"


###

Molecular target: human Edg-1 (S1P1) (Homo sapiens)
Construct: expressed in transfected cells; host or cells: HEK-293
Sequence (P21453 whole entry): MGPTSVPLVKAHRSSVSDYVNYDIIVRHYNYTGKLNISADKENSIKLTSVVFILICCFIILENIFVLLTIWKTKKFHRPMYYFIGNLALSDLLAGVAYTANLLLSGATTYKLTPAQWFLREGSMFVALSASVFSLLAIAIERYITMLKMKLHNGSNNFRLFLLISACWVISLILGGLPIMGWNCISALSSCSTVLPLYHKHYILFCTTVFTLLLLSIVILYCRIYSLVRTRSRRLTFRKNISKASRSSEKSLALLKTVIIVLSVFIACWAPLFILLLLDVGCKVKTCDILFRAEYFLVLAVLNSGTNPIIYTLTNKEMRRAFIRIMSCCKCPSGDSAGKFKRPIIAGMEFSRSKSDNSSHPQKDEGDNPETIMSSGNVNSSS
Experiment: S1P1 binding assay: inhibition of [33P]-S1P binding to membrane fraction of HEK-293 cells transferred with the human Edg-1 (S1P1) gene
Conditions: test compound at 10 μM; inhibition of [33P]-S1P binding to the membrane fraction of HEK-293 cells expressing human Edg-1 (S1P1)
outcomeMeasure: inhibition at 10 µM (%)

[[record]]
givensmiles = "CCn1c(Oc2ccc(N3CCN(C)CC3)cc2)nnc1[C@@H](C)NS(=O)(=O)c1ccc(Cl)c(Cl)c1"
resultunit = "%"
valuemeasured = 100

[[record]]
givensmiles = "CCn1c(Oc2cccc(NC(=O)N3CCOCC3)c2)nnc1[C@@H](C)NS(=O)(=O)c1ccc(Cl)c(Cl)c1"
resultunit = "%"
valuemeasured = 100

[[record]]
givensmiles = "CCn1c(Oc2ccc3cc[nH]c3c2)nnc1[C@@H](C)NS(=O)(=O)c1ccc(C(=O)OC)n1C"
resultunit = "%"
valuemeasured = 106

[[record]]
givensmiles = "CCn1c(Oc2ccc(F)cc2)nnc1[C@@H](C)NS(=O)(=O)c1cc(F)c(F)c(F)c1"
resultunit = "%"
valuemeasured = 99.9

[[record]]
givensmiles = "CCn1c(Oc2cccc(N3CCN(C)CC3)c2)nnc1[C@@H](C)NS(=O)(=O)c1ccc2ccccc2c1"
resultunit = "%"
valuemeasured = 103

[[record]]
givensmiles = "CCCc1ccc(Oc2nnc([C@@H](C)NS(=O)(=O)c3ccc(Cl)c(Cl)c3)n2CC)cc1"
resultunit = "%"
valuemeasured = 97.5

[[record]]
givensmiles = "CCn1c(Oc2cccc(N3C[C@@H](C)O[C@@H](C)C3)c2)nnc1[C@@H](C)NS(=O)(=O)c1ccc(Cl)c(Cl)c1"
resultunit = "%"
valuemeasured = 99.2

[[record]]
givensmiles = "CCn1c(Oc2cc(C(F)(F)F)n(C)n2)nnc1[C@@H](C)NS(=O)(=O)c1ccc(Cl)c(Cl)c1"
resultunit = "%"
valuemeasured = 99.7

[[record]]
givensmiles = "CCn1c(Oc2ccc3cc[nH]c3c2)nnc1[C@@H](C)NS(=O)(=O)c1ccc(OC)cc1"
resultunit = "%"
valuemeasured = 109

[[record]]
givensmiles = "COc1ccc(Oc2nnc([C@@H](C)NS(=O)(=O)c3ccc(Cl)c(Cl)c3)n2C2CC2)cc1"
resultunit = "%"
valuemeasured = 105

[[record]]
givensmiles = "CCn1c(Oc2cccc(N3CCN(C)CC3)c2)nnc1[C@@H](C)NS(=O)(=O)c1ccc(C)c(Cl)c1"
resultunit = "%"
valuemeasured = 101

[[record]]
givensmiles = "CCn1c(Oc2cccc(NS(C)(=O)=O)c2)nnc1[C@@H](C)NS(=O)(=O)c1ccc(Cl)c(Cl)c1"
resultunit = "%"
valuemeasured = 104

[[record]]
givensmiles = "CCn1c(Oc2ccc(C)c(C)c2)nnc1[C@@H](C)NS(=O)(=O)c1ccc(Cl)c(Cl)c1"
resultunit = "%"
valuemeasured = 99.5

[[record]]
givensmiles = "CCn1c(Oc2ccc(F)cc2)nnc1[C@@H](C)NS(=O)(=O)CC1CCCCC1"
resultunit = "%"
valuemeasured = 60.6

[[record]]
givensmiles = "CCn1c(Oc2ccc3cccnc3c2)nnc1[C@@H](C)NS(=O)(=O)c1ccc(Cl)c(Cl)c1"
resultunit = "%"
valuemeasured = 99

